# measured on: Gamma-secretase (Homo sapiens) (UniProt Q96BI3+Q9NZ42+Q8WW43+P49768+Q92542+P49810)
# assay text: Inhibition of gamma-secretase (unknown origin) expressed in N2a NL/N cells coexpressing betaAPPNL and NotchdeltaE assessed as Abeta40 secretion at 100 nM by ELISA
# Assay type: cell-based
Activity calls are given as the source filed them. No cut-off for these calls is given here.
Classes used: active, inactive

INSERT INTO assay_data (entry_smiles, group) VALUES
  ('CC(=O)N[C@H]1CCC[C@@H]1C(=O)N[C@H]1CCC[C@@H]1C(=O)N[C@H]1CCC[C@@H]1C(=O)N[C@H]1CCC[C@@H]1C(=O)N[C@H]1CCC[C@@H]1C(=O)N[C@H](CC(=O)N[C@H]1CCC[C@@H]1C(=O)N[C@H]1CCC[C@@H]1C(=O)N[C@H]1CCC[C@@H]1C(=O)N[C@H]1CCC[C@@H]1C(=O)N[C@H]1CCC[C@@H]1C(=O)N[C@H]1CCC[C@@H]1C(N)=O)CC(C)C', 'inactive'),
  ('CC(=O)N[C@H]1CCC[C@@H]1C(=O)N[C@H]1CCC[C@@H]1C(=O)N[C@@H](CCC(=O)O)CC(=O)N[C@H]1CCC[C@@H]1C(=O)N[C@H]1CCC[C@@H]1C(=O)N[C@H]1CCC[C@@H]1C(=O)N[C@H]1CCC[C@@H]1C(=O)N[C@H]1CCC[C@@H]1C(=O)N[C@H]1CCC[C@@H]1C(=O)N[C@H]1CCC[C@@H]1C(=O)N[C@H]1CCC[C@@H]1C(=O)N[C@H]1CCC[C@@H]1C(N)=O', 'active'),
  ('CC(=O)N[C@H]1CCC[C@@H]1C(=O)N[C@H]1CCC[C@@H]1C(=O)N[C@H]1COC[C@@H]1C(=O)N[C@H]1CCC[C@@H]1C(=O)N[C@H]1CCC[C@@H]1C(=O)N[C@H]1CCC[C@@H]1C(=O)N[C@H]1CCC[C@@H]1C(=O)N[C@H]1CCC[C@@H]1C(=O)N[C@H]1CCC[C@@H]1C(=O)N[C@H]1CCC[C@@H]1C(=O)N[C@H]1CCC[C@@H]1C(=O)N[C@H]1CCC[C@@H]1C(N)=O', 'active');

The values you see were collected from ChEMBL document CHEMBL2331477.
